Sourced from patent US20260327263A1

tested on: Pseudomonas aeruginosa (PA); assay: Time-kill assay, Pseudomonas aeruginosa; assay type: cell-based; settings: 1X MBC
Where no end group is shown, it is not given here.
measured_parameter: time to kill PA (in words)

[[record]]
substance = "KKLLKKWVKLSKKALKLALSL-NH2 [Q19L]"
result = "within minutes"

[[record]]
substance = "E1AM2: untagged (E1AM2), KKLLKKWVKLSKKALKLAQSL"
result = "within minutes"

[[record]]
substance = "KKLLKKWLKLSKKALKLAQSL-NH2 [V8L]"
result = "within minutes"


* * *

test system: Staphylococcus aureus (SA); test: Time-kill assay, Staphylococcus aureus; type: cell-based; settings: at 1X MBC; * indicates killing within seconds
Where no end group is shown, it is not given here.
Here, each record is paired with measured Time kill SA, >99% killing data.
The reply should be a number in min, with the unit left off.

[[record]]
substance = "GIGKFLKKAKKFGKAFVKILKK-NH2 [Pexiganan, reference compound]"
quantitative_readout = 1


Query string: Give the value of Time kill SA, >99% killing reported for the following: KKLLKKWVKLSKKALKLALSL-NH2 [Q19L]
Result string: 1

Query string: Give the value of Time kill SA, >99% killing reported for the following: E1AM2: untagged (E1AM2), KKLLKKWVKLSKKALKLAQSL
Result string: 1

* * *

Here, each record is paired with measured log10 MIC data.
tested on: Staphylococcus aureus (SA); assay: Broth microdilution anti-bacterial assay (CLSI), Staphylococcus aureus; format: cell-based; settings: SA; overnight, 37° C.; ≥99% inhibition
Where no end group is shown, it is not given here.
A value of 2 here means MIC of 100 in µM, since values are log10.

Below: 5 substances and their reported log10 MIC.
[[record]]
substance = "KKLLKKWLKLSKKALKLAL-NH2 [V8LQ19L C-2]"
target_or_system = "Staphylococcus aureus (SA)"
quantitative_readout = 0.19

[[record]]
substance = "KKLLKKWLKLSKKALKLAQSL-NH2 [V8L]"
target_or_system = "Staphylococcus aureus (SA)"
quantitative_readout = 0.49

[[record]]
substance = "KKLLKKWLKLSKKALKLALS-NH2 [V8LQ19L C-1]"
target_or_system = "Staphylococcus aureus (SA)"
quantitative_readout = 0.49

[[record]]
substance = "KKLLKKKVKLSKKALKLAQSL-NH2 [W7K]"
target_or_system = "Staphylococcus aureus (SA)"
quantitative_readout = 1.10

[[record]]
substance = "KKLLKKLLKLSKKALKLALSL-NH2 [W7LV8LQ19L]"
target_or_system = "Staphylococcus aureus (SA)"
quantitative_readout = 0.20


Query string: Give the value of log10 MIC reported for the following: KKLLKKWVKLSKKALKLALSL-NH2 [Q19L]
Result string: 0.49

Query string: Give the value of log10 MIC reported for the following: KKLLKKWVKLSKKALKLKQSL-NH2 [A18K]
Result string: 1.10

Query string: Give the value of log10 MIC reported for the following: KKLLKKWVKLSKKALKLAKSL-NH2 [Q19K]
Result string: 1.10

Query string: Give the value of log10 MIC reported for the following: KKLLKKWLKLSKKALKLALSL-NH2 [V8LQ19L]
Result string: 0.19

Query string: Give the value of log10 MIC reported for the following: KKLLKKWVKLLKKALKLAQSL-NH2 [S11L]
Result string: 0.80

* * *

Here, each record is paired with measured log10 MBC data.
test system: Pseudomonas aeruginosa (PA); assay: Broth microdilution anti-bacterial assay (CLSI), Pseudomonas aeruginosa; assay type: cell-based, Pseudomonas aeruginosa (ATCC 14213); details: PA; ≥99% killing
Where no end group is shown, it is not given here.
A value of 2 here means MBC of 100 in µM, since values are log10.

Below: 6 substances and their reported log10 MBC.
[[record]]
substance = "KKLLKKWVKLSKKALKLAQSL-NH2 [E1AM2-NH2]"
quantitative_readout = 0.80

[[record]]
substance = "KKLLKKWLKLSKKALKLAQSL-NH2 [V8L]"
quantitative_readout = 0.49

[[record]]
substance = "KKLLKKWVKLSKKLLKLAQSL-NH2 [A14L]"
quantitative_readout = 1.10

[[record]]
substance = "KKLLKKWVKLSKKALKLAKSL-NH2 [Q19K]"
quantitative_readout = 1.40

[[record]]
substance = "KKLLKKWVKLLKKALKLAQSL-NH2 [S11L]"
quantitative_readout = 1.10

[[record]]
substance = "KKLLKKWVKLSKKALKLAQLL-NH2 [S20L]"
quantitative_readout = 1.10


Let's switch to this substance now.
Query string: Give the value of log10 MBC reported for the following: Ac-KKLLKKWVKLSKKALKLAQSL-NH2 [Ac-E1AM2-NH2]
Result string: 1.10

* * *

tested on: human red blood cells (hRBCs); assay: Hemolysis assay; assay type: cell-based; conditions: hRBCs, 37° C., 30 min
Where no end group is shown, it is not given here.
Here, each record is paired with measured minimum concentration corresponding to 10% hemolysis (HC) data.

Below: 3 substances and their reported minimum concentration corresponding to 10% hemolysis (HC).
[[record]]
substance = "KKLLKKWLKLSKKALKLAL-NH2 [V8LQ19L C-2]"
target_or_system = "human red blood cells (hRBCs)"
result = "3.125 µM"

[[record]]
substance = "KKLLKKWLKLSKKALKLALSL-NH2 [V8LQ19L]"
target_or_system = "human red blood cells (hRBCs)"
result = "12.5 µM"

[[record]]
substance = "E1AM2: untagged (E1AM2), KKLLKKWVKLSKKALKLAQSL"
target_or_system = "human red blood cells (hRBCs)"
result = "50 µM"


Let's switch to this substance now.
Query string: Give the value of minimum concentration corresponding to 10% hemolysis (HC) reported for the following: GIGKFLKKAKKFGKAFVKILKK-NH2 [Pexiganan, reference compound]
Result string: 12.5 µM

* * *

Here, each record is paired with measured MIC data.
tested on: Staphylococcus aureus (SA); test: Broth microdilution anti-bacterial assay (CLSI), Staphylococcus aureus; type: cell-based; details: SA; overnight, 37° C.; ≥99% inhibition
Where no end group is shown, it is not given here.

Query string: # lookup: Staphylococcus aureus (SA) MIC, key = KKLLKKLVKLSKKALKLAQSL-NH2 [W7L]
Result string: 6.25 µM

* * *

Here, each record is paired with measured MBC data.
System: Pseudomonas aeruginosa (PA)
Assay: Broth microdilution anti-bacterial assay (CLSI), Pseudomonas aeruginosa
Assay type: cell-based, Pseudomonas aeruginosa (ATCC 14213)
Settings: PA; ≥99% killing
Experimental: To evaluate their anti-bacterial potency, broth microdilution method as per the CLSI guidelines 1 was used. […] The anti-bacterial potency of the tested agents is quantified using minimum inhibitory concentration (MIC) and minimum bactericidal concentration (MBC). […] To obtain the MBC data, 1X, 2X and 4× MIC of the peptide variants were plated to obtain the number of viable colonies compared to the original inoculum. […]
Where no end group is shown, it is not given here.
The reply should be a number in µM, with the unit left off.

[[record]]
substance = "KKLLKKWLKLSKKALKLALSL-NH2 [V8LQ19L]"
quantitative_readout = 1.56

[[record]]
substance = "KKLLKKWKKLSKKALKLAQSL-NH2 [V8K]"
quantitative_readout = 3.126

[[record]]
substance = "KKLLKKKVKLSKKALKLAQSL-NH2 [W7K]"
quantitative_readout = 12.5

[[record]]
substance = "KKLLKKWLKLSKKALKLAL-NH2 [V8LQ19L C-2]"
quantitative_readout = 1.56


Query string: Give the value of MBC reported for the following: KKLLKKLVKLSKKALKLAQSL-NH2 [W7L]
Result string: 3.125

* * *

tested on: Staphylococcus aureus (SA); test: Broth microdilution anti-bacterial assay (CLSI), Staphylococcus aureus; format: cell-based; details: SA; overnight, 37° C.; ≥99% inhibition
Where no end group is shown, it is not given here.
measured_parameter: MIC (µM)
The reply should be a number in µM, with the unit left off.

[[record]]
substance = "KKLLKKWVKLSKKALKLLQSL-NH2 [A18L]"
quantitative_readout = 3.125

[[record]]
substance = "KKLLKKWVKLSKKALKLAQLL-NH2 [S20L]"
quantitative_readout = 6.25

[[record]]
substance = "KKLLKKWVKLSKKKLKLAQSL-NH2 [A14K]"
quantitative_readout = 12.5


Query string: Give the value of MIC reported for the following: KKLLKKWVKLSKKALKLAQKL-NH2 [S20K]
Result string: 25

Query string: Give the value of MIC reported for the following: KKLLKKWVKLKKKALKLAQSL-NH2 [S11K]
Result string: 12.5

Query string: Give the value of MIC reported for the following: KKLLKKWVKLSKKALKLAQSL-NH2 [E1AM2-NH2]
Result string: 6.25

Query string: Give the value of MIC reported for the following: KKLLKKWVKLSKKLLKLAQSL-NH2 [A14L]
Result string: 6.25

Query string: Give the value of MIC reported for the following: KKLLKKWKKLSKKALKLAQSL-NH2 [V8K]
Result string: 12.5
